- experimental_system: Recombinant human renin (Homo sapiens, UniProt P00797)
- Construct: isolate the active form (residues 67-406); made in house; host or cells: FreeStyle 293-F cells (transient expression of pcDNA3.1(+)/hREN)
- Sequence (P00797 67-406): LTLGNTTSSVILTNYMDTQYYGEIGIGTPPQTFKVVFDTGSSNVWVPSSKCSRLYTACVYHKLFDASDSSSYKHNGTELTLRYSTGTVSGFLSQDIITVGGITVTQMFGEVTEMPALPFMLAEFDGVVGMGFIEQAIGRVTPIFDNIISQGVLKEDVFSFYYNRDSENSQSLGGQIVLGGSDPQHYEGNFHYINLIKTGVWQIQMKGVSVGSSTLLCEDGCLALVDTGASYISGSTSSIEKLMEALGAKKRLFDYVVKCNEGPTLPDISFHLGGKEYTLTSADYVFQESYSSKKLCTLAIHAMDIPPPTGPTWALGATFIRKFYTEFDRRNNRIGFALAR
- measurement_description: In vitro enzymatic activity assay of renin inhibitors (fluorogenic peptide substrate)
- Assay type: biochemical
- condition_notes: read-out: IC50 of Exemplified Compounds Against Renin
- Method: Test compounds in varying concentrations may be reacted with recombinant human renin in the presence of substrate, e.g., QXL520-γ-Abu-[…](HiLyteFluo488)-Arg-OH (Anaspec, San Jose, Calif.). […] Inhibition constants (IC50) may be calculated by non-linear curve fitting of the compound concentrations and fluorescence intensities to the standard IC50 equation. […] The fluorescence intensity is determined upon the addition of substrate and determined again after incubation at 37° C. for one hour. […]
quantity_name: IC50

Which measured IC50 value corresponds to COCCCn1c([C@@H]2CCCN(C(=O)C[C@H](N)Cc3ccc(-c4ccc5nonc5c4)cc3)C2)nc2ccccc21 ?
< 100 nM

Same for O=C(NC1CCCCC1)N1CCCC(c2nc3ccccc3[nH]2)C1 (stereo not shown)
> 1000 nM

Field entry: Cc1cccc(C[C@@H](N)CC(=O)N2CCCC(c3nc4ccccc4[nH]3)C2)c1 (stereo partly shown)
> 1000 nM

Lookup COCCCn1c([C@@H]2CCCN(C(=O)C[C@H](N)Cc3ccc(-c4ccccc4)cc3)C2)nc2c(Cl)cccc21
< 100 nM

Ok, now COCCCn1c([C@@H]2CCCN(C(=O)C[C@H](N)Cc3ccc(-c4c(C)noc4C)cc3)C2)nc2ccccc21
100 to 1000 nM

// repeat for CCCn1c(=O)n(-c2ccc(C[C@@H](N)CC(=O)N3CCC[C@@H](c4nc5ccccc5n4CCCOC)C3)cc2)c2ccccc21 and report
< 100 nM

// same read-out, input: COCCCn1c([C@@H]2CCCN(C(=O)C[C@H](N)Cc3ccc(-n4c(=O)n(CCO)c5ccccc54)cc3)C2)nc2ccccc21
< 100 nM

Item: COCCCn1c([C@@H]2CCCN(C(=O)C[C@H](N)Cc3ccc(-c4cnc(N)nc4)cc3)C2)nc2ccccc21
< 100 nM

What about this compound? COCCCn1c([C@@H]2CCCN(C(=O)C[C@H](N)Cc3ccc(-c4ccc5c(c4)OC(F)(F)O5)cc3)C2)nc2c(F)cccc21
< 100 nM

Subsequent entry: COCCCn1c([C@@H]2CCCN(C(=O)C[C@H](N)CNC(=O)c3ccc(-c4cccs4)cc3)C2)nc2ccccc21
< 100 nM

Now consider COCCCn1c([C@@H]2CCCN(C(=O)C[C@H](N)c3ccccc3)C2)nc2ccccc21 .
> 1000 nM

Now consider COCCCn1c([C@@H]2CCCN(C(=O)C[C@H](N)CNC(=O)c3cc4ccccc4o3)C2)nc2ccccc21 and answer again.
100 to 1000 nM

Same lookup for COCCCn1c([C@@H]2CCCN(C(=O)[C@@H]3CN(C(=O)Nc4ccc(Cl)cc4)C[C@H]3N)C2)nc2ccccc21 , please.
> 1000 nM

Entry to check: COCCCn1c([C@@H]2CCCN(C(=O)C[C@H](N)Cc3ccc(-c4ccc5c(c4)CC(=O)N5)cc3)C2)nc2c(C)cccc21
< 100 nM

Request: O=C(Nc1ccccc1-c1ccccc1)N1CCCC(c2nc3ccccc3[nH]2)C1 (stereo not shown)
> 1000 nM

Please answer likewise for COCCCn1c([C@@H]2CCCN(C(=O)C[C@H](N)Cc3ccc(-c4ccc(N)cc4)cc3)C2)nc2ccccc21
< 100 nM

Now this one: COCCCn1c([C@@H]2CCCN(C(=O)C[C@H](N)Cc3ccc(-c4cnc(C)n4C)cc3)C2)nc2ccccc21
100 to 1000 nM

Now try COCCCn1c([C@@H]2CCCN(C(=O)C[C@H](N)Cc3ccc(N4CCOCC4=O)cc3)C2)nc2ccccc21 .
100 to 1000 nM

Try this compound next: COCCCn1c([C@@H]2CCCN(C(=O)C[C@H](N)Cc3ccc(-c4ccc(C(=O)NCC(O)CO)cc4)cc3)C2)nc2ccccc21 (stereo partly shown)
< 100 nM

Now try COCCCn1c([C@@H]2CCCN(C(=O)C[C@H](N)Cc3ccc(-c4ccc(OC)cc4)cc3)C2)nc2c(F)cccc21 .
< 100 nM

Would you kindly repeat that for COCCCn1c([C@@H]2CCCN(C(=O)C[C@H](N)Cc3ccc(-c4ccc(C(=O)NC5CC5)cc4)cc3)C2)nc2ccccc21 ?
< 100 nM

Can you check COCCCn1c([C@@H]2CCCN(C(=O)C[C@H](N)CNC(=O)c3ccccc3Cl)C2)nc2ccccc21 next?
100 to 1000 nM

Request: COCCCn1c([C@@H]2CCCN(C(=O)C[C@H](N)CNC(=O)c3ccc(OC)cc3)C2)nc2ccccc21
100 to 1000 nM

Thanks! And COCCCn1c([C@@H]2CCCN(C(=O)[C@@H]3CN(S(=O)(=O)c4cccc(OC(F)F)c4)C[C@H]3N)C2)nc2ccccc21 ?
> 1000 nM

Another compound to look at: N[C@@H](CC(=O)N1CCC[C@@H](c2nc3ccccc3[nH]2)C1)Cc1ccc(-c2ccccc2)cc1
> 1000 nM

Proceed to COCCCn1c([C@@H]2CCCN(C(=O)C[C@H](N)Cc3ccc(-c4csc(OC)n4)cc3)C2)nc2ccccc21
< 100 nM

And for COCCCn1c([C@@H]2CCCN(C(=O)C[C@H](N)Cc3ccc(-c4ccc(OC(C)C)nc4)cc3)C2)nc2ccccc21 ?
< 100 nM

Ok, now COCCCn1c([C@@H]2CCCN(C(=O)C[C@H](N)Cc3ccc4ccccc4c3)C2)nc2ccc(Cl)nc21
> 1000 nM
